- system-tested: Luciferin 4-monooxygenase (Photinus pyralis)
- Sequence (P08659 whole entry): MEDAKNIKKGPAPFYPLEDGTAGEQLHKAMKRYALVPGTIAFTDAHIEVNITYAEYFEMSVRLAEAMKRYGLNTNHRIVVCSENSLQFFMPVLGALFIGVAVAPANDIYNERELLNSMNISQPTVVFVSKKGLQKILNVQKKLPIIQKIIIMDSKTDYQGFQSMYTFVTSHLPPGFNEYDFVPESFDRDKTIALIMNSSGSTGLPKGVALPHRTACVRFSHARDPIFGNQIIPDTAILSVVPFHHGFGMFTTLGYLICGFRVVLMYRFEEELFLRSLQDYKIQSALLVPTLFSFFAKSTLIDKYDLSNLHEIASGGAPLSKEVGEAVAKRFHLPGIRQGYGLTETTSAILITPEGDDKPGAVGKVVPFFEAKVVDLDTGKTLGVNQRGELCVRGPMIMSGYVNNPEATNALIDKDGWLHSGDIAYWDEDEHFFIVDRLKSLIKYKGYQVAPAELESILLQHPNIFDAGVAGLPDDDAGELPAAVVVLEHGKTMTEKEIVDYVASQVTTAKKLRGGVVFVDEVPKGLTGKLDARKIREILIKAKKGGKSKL
- assay-text: firefly luciferase enzyme inhibitors, dose response, biochemical, luminescence (AID 1891)
The source made the active and inactive calls.
Provide the recorded EC50 for the entries that follow.

INSERT INTO results (molecule, result) VALUES
  ('Cc1ccccc1C(=O)O/N=C(\N)c1ccccc1', '3.42 µM (active)'),
  ('Cc1ccc(Oc2nc3ccccn3c(=O)c2/C=C(\C#N)C(=O)NC2CCS(=O)(=O)C2)cc1 (stereo not given)', '> 112 µM (not active)'),
  ('CCOc1ccc(N2C(=O)CC(Sc3nc4ccc(OCC)cc4s3)C2=O)cc1 (stereo not given)', '> 112 µM (not active)'),
  ('COC(=O)c1[nH]c2cccc(OC)c2c1NC(=O)CN1CCOCC1', '> 112 µM (not active)'),
  ('O=C(NNS(=O)(=O)c1ccccc1)c1cccnc1', '> 112 µM (not active)'),
  ('CC(=O)c1ccc(NC(S)=NC(C)CCc2ccccc2)cc1 (stereo not given)', '> 112 µM (not active)'),
  ('O=C(NC(c1ccccc1)c1ccccc1)c1ccc(O)nn1', '> 112 µM (not active)'),
  ('O=C(Cn1nc(C(=O)O)c2ccccc2c1=O)NCC1CCCO1 (stereo not given)', '> 112 µM (not active)');

Give measured EC50 for every item shown.
1. CC(C)(C)c1ccc(C(=O)NC(=S)NNC(=O)c2cccs2)cc1
2. CC(C)Oc1ccc(CNC(=O)c2ccc3c(c2)N(C)CCS3)cc1
3. Cc1c(NC(=O)CCN2C(=O)c3ccccc3C2=O)c(=O)n(-c2ccccc2)n1C
4. COc1ccccc1CC(=O)NNC(=O)CN(C)S(=O)(=O)c1ccc(Cl)cc1
5. CCOC1OC2C(CO)OC(n3cnc4c(N)ncnc43)C2O1 (stereo not given)
6. CC1(c2ccccc2)NC(=O)N(CC(=O)N2CCN(S(=O)(=O)c3ccccc3[N+](=O)[O-])CC2)C1=O (stereo not given)
7. CCOC(=O)c1sc(N2C(=O)C(O)=C(C(=O)c3ccc(C)o3)C2c2cccc([N+](=O)[O-])c2)nc1C (stereo not given)
8. Nc1ncnc2c1ncn2[C@@H]1O[C@H](COP(=O)(O)O)[C@@H](O)[C@H]1O

1. > 112 µM (not active)
2. 20.4 µM (active)
3. > 112 µM (not active)
4. > 112 µM (not active)
5. > 112 µM (not active)
6. > 112 µM (not active)
7. > 112 µM (not active)
8. 1.48 µM (active)

Give measured EC50 for every item shown.
1. COc1cc(/C=N/NC(=O)/C(=C/c2ccccc2)CCO)ccc1O
2. COc1ccc(C(=O)O/N=C(\C)c2ccccc2)cc1
3. C=C(C)CC1(NC(C)c2ccccc2)CCCCC1 (stereo not given)
4. Nc1c(NC=O)c(=O)n(Cc2ccccc2)c(=O)n1Cc1ccccc1

> 112 µM (not active)
0.637 µM (active)
> 112 µM (not active)
> 112 µM (not active)

---

- system-tested: Calpain-2 catalytic subunit (Sus scrofa)
- Sequence (P43367 whole entry): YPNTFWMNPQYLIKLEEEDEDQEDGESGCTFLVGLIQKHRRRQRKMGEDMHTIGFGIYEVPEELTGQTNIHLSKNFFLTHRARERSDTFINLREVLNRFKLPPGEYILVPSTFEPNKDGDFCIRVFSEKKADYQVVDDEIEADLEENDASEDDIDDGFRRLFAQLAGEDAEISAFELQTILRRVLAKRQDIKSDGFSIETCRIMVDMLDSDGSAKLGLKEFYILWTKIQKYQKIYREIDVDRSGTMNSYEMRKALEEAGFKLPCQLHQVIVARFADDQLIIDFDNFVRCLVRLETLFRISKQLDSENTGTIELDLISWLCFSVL
- assay-text: pig calpain II inhibitor potency, dose response, biochemical, fluorogenic peptide substrate (AID 1420)
- Format: functional
The source made the active and inactive calls.
property-measured: IC50

Field: example entries. Status: answers known.
INSERT INTO measurements (compound, property_measured, result) VALUES
  ('O=C(NCCc1ccccc1)c1cnc2n(c1=O)CCS2', 'IC50', '24.2 µM (not active)'),
  ('Cc1ccc(Nc2c([N+](=O)[O-])ccc3c2=NC2(CCCCC2)N=3)cc1', 'IC50', '1.58 µM (not active)'),
  ('CCN(CC)CCc1c(C)[nH]c(C(=O)OCc2ccccc2)c1C', 'IC50', '14.4 µM (not active)'),
  ('Oc1c(Cl)cc(Cl)c(Cl)c1Cc1c(O)c(Cl)cc(Cl)c1Cl [HEXACHLOROPHENE]', 'IC50', '3.73 µM (active)');

Give measured IC50 for every item shown.
1. Cc1ccsc1S(=O)(=O)N1CCCC(CCC(=O)NCc2ccccc2F)C1 (stereo unspecified)
2. CC(=O)c1sc(NC(=O)COc2ccc(C(C)C)c(C)c2)nc1C

> 50 µM (not active)
9.95 µM (not active)

---

- system-tested: Mu-type opioid receptor (Homo sapiens);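 note: U2OS cells with beta-arrestin recruitment to OPRM1 by beta-gal complementation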
- Sequence (P35372 whole entry): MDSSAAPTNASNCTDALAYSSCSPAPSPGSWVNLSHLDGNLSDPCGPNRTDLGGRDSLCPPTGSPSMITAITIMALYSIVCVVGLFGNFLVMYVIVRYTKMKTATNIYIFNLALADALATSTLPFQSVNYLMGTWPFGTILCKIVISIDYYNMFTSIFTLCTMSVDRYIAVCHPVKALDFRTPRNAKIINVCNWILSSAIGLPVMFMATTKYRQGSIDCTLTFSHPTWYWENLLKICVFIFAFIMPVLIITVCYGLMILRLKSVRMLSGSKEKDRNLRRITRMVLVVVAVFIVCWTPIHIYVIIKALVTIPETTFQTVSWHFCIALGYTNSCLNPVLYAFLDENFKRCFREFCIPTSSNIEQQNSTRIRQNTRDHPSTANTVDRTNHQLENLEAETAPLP
- Assay type: functional, cell-based
Calls of active or inactive are those of the source.
Provide the recorded EC50 for the entries that follow.

INSERT INTO measurements (compound, system_tested, result) VALUES
  ('NC1CCc2cc(O)c(O)cc2C1 (stereo not given)', 'Mu-type opioid receptor (Homo sapiens)', '92.5 µM (inactive)'),
  ('CN1CCc2c(sc(/N=C/c3cc(Cl)ccc3O)c2C#N)C1', 'Mu-type opioid receptor (Homo sapiens)', '92.4 µM (inactive)'),
  ('COC(=O)C1CCN(CCCOc2ccc(CN3CCN(c4ccc([N+](=O)[O-])cc4)CC3)cc2)CC1', 'Mu-type opioid receptor (Homo sapiens)', '92.6 µM (inactive)'),
  ('CNCCc1c[nH]c2ccc(O)cc12', 'Mu-type opioid receptor (Homo sapiens)', '92.4 µM (inactive)');

Per the record, CN(c1ccc(C(=O)N2CCN(Cc3ccccc3)CC2)cc1)S(=O)(=O)c1ccc(Cl)cc1 has EC50 of 92.4 µM (inactive)

---

- system-tested: Voltage-gated N-type calcium channel alpha-1B subunit/Amyloid beta A4 precursor protein-binding family A member 1 (Homo sapiens, UniProt Q00975+Q02410)
- Sequence (Q00975 whole entry): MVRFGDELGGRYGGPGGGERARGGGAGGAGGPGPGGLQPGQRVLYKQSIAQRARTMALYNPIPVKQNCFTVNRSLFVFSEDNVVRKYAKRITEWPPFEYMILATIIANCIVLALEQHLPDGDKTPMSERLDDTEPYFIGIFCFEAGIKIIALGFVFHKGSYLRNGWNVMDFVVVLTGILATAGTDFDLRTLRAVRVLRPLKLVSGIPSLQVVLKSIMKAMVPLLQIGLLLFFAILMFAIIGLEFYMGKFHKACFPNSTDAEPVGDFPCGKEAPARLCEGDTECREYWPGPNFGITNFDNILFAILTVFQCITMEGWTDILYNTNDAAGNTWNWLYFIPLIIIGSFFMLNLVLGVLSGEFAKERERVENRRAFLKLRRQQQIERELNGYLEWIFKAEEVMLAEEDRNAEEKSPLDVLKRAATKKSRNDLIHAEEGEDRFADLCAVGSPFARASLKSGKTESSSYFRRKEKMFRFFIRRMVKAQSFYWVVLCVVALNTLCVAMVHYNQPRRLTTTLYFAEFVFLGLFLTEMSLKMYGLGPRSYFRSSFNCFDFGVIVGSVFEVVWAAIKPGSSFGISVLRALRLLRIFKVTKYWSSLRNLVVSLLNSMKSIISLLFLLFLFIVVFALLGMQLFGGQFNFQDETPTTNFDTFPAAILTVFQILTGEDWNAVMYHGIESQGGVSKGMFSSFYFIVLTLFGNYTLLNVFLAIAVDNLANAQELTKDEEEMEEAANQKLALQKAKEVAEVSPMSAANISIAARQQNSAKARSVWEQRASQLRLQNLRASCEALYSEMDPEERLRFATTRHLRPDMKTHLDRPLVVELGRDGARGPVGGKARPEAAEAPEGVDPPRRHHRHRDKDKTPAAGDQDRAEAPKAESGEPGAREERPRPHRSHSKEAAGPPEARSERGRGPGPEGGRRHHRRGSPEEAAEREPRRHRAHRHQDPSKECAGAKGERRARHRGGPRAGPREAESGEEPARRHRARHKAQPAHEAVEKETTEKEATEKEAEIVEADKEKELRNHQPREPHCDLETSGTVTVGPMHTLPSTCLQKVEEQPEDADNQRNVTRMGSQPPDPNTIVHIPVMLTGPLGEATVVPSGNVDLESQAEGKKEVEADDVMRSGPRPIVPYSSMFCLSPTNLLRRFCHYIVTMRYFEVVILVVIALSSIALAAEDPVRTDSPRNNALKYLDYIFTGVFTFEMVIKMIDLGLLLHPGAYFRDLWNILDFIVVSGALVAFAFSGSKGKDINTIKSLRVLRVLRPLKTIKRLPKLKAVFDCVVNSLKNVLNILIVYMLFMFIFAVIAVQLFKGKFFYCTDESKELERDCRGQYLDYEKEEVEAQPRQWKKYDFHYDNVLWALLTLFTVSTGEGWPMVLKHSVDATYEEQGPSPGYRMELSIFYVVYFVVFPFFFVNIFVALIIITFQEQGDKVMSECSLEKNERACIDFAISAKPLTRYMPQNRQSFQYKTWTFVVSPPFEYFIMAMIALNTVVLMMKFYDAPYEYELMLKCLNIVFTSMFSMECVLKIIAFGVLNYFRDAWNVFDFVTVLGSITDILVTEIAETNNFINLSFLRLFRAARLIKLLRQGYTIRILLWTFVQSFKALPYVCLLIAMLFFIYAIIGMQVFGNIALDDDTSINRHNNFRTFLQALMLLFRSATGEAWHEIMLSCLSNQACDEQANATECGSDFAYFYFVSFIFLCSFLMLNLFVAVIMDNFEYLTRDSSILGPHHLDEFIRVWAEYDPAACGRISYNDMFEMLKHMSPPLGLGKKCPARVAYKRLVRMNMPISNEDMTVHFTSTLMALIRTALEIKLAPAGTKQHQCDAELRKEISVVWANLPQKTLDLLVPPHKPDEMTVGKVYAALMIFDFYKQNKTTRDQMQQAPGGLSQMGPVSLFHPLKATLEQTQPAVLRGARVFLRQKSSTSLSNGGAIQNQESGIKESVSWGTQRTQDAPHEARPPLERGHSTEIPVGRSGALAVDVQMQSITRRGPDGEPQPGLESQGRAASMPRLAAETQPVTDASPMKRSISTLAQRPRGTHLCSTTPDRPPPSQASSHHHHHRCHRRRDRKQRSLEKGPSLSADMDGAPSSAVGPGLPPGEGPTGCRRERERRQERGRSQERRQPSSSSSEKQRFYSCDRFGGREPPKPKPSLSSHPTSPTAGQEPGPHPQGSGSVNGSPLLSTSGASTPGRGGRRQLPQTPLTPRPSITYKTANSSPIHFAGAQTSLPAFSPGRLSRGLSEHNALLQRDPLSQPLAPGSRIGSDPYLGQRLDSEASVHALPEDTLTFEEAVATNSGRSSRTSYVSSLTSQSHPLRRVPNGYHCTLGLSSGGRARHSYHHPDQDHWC
- Sequence (Q02410 whole entry): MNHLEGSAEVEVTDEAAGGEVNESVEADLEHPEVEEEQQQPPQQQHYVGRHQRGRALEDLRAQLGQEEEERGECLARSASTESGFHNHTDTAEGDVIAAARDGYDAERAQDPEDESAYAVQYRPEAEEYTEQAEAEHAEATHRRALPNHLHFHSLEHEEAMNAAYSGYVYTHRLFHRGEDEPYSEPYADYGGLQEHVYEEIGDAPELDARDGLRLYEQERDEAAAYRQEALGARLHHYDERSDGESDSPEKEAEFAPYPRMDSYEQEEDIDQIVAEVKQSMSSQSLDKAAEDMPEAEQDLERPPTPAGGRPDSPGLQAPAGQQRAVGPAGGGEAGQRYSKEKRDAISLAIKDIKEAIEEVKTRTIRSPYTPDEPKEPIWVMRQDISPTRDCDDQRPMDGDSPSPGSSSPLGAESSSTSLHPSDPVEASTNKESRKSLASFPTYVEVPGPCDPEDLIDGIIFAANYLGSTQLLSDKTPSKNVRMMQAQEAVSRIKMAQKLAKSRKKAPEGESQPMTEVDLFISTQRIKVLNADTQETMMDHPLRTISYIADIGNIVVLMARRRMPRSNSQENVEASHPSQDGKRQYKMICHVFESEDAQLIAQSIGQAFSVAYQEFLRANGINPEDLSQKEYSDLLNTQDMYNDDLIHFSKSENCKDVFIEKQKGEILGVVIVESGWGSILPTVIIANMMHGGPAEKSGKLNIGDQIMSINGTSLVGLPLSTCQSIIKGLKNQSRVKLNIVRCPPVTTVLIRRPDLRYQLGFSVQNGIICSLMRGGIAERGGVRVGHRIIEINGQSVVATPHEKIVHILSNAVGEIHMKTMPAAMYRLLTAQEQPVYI
- Type: protein assay
Activity calls are given as the source filed them.
Give one outcome, nothing more. List: YES = active, NO = inactive

Worked examples, 3 molecules total:
INSERT INTO assay_data (smi, assigned_category) VALUES
  ('O=C1C([N+](=O)[O-])=C(O)c2cccc3cccc1c23', 'YES'),
  ('COc1ccc(NC(=O)c2cc(-c3ccco3)nc3ccccc23)cc1S(=O)(=O)N1CCOCC1', 'YES'),
  ('CC1(C)[N+]([O-])=c2ccc([N+](=O)[O-])cc2=[N+]1[O-].NO', 'YES');

How was COCCn1c(SCC(=O)Nc2ccc(C(N)=O)cc2)nc2c3ccccc3nc-2c1O classified in this test?
NO

How was O=C(Nc1ccc2oc(-c3cccc4ccccc34)nc2c1)c1nnc[nH]1 classified in this test?
NO

---

Provide the recorded IC50 for the entries that follow.
- system-tested: Cysteine protease ATG4B (Homo sapiens, UniProt Q9Y4P1);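 note: Fluorescence-based dose-response confirmation assay measuring inhibition of ATG4B activity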
- Sequence (Q9Y4P1 whole entry): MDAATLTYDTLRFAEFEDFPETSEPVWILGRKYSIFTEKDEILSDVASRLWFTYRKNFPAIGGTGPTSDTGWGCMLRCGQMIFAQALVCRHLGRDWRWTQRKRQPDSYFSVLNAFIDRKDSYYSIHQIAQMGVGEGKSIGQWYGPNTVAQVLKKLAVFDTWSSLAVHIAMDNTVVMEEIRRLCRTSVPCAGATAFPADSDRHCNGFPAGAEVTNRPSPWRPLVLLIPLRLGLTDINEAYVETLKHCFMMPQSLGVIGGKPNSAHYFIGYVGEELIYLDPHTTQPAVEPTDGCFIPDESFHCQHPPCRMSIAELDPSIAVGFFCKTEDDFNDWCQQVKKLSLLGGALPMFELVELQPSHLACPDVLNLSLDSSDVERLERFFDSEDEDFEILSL
- Format: functional
Active and inactive are the calls of the source.

INSERT INTO assay_data (molecule, result) VALUES
  ('O=C(O)c1ccc(-c2ccc(/C=C3\NC(=O)N(Cc4ccc(Cl)cc4)C3=O)o2)cc1Cl', '16.2 µM (active)'),
  ('Oc1c(Br)cc(Br)cc1/C=N/c1ccc2c(c1)OCO2', '4.43 µM (active)'),
  ('Cc1sc2nc(C3CCCCC3)nc(SCC(=O)N3CC(=O)Nc4ccccc43)c2c1C', '0.316 µM (active)');

Please examine the following record next.
Query CC1CC(C)CN(C(=O)c2ccc(C(=O)c3ccccc3)cc2)C1 (centres undefined) on Cysteine protease ATG4B (Homo sapiens, UniProt Q9Y4P1); IC50 returned: 10.8 µM (active)

---

- system-tested: Peroxisome proliferator-activated receptor gamma/Nuclear receptor coactivator 1 (Homo sapiens, UniProt P37231)
- assay-text: TR-FRET dose response biochemical High Throughput Screening assay for agonists of the steroid receptor coactivator 1 (SRC-1) recruitment by the peroxisome proliferator-activated receptor gamma (PPAR gamma): non-selective agonists. [Related pubchem assays (depositor defined):AID1300, AID1808, AID504735, AID631]
- Format: protein assay
The source made the active and inactive calls.
Give one outcome, nothing more. List: active, inactive

INSERT INTO assay_data (smi, assigned_category) VALUES
  ('CSc1c(SCc2ccccc2)cnn(Cc2ccccc2)c1=O', 'active');

How was Cn1c(=S)[nH]c2scc(-c3cccs3)c2c1=O classified in this test?
inactive

How was Cc1cc2ccccc2n1CCNC(=O)c1ccc(S(=O)(=O)N2CCCCC2)cc1 classified in this test?
active

---

Provide the recorded IC50 for the entries that follow.
- system-tested: Probable nicotinate-nucleotide adenylyltransferase (Staphylococcus aureus (strain N315), UniProt P65502);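 note: confirmatory dose-response retesting of NadD inhibitor hits first found in an ultra-high-throughput screen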
- Sequence (P65502 whole entry): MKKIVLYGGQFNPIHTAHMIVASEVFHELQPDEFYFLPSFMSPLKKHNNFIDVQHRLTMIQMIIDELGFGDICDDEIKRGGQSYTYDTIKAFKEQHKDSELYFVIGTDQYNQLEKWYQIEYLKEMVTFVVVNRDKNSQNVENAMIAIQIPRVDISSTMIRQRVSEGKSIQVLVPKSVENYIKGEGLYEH
- Assay type: functional, Staphylococcus aureus subsp. aureus N315
- test-context: read-out: IC50_Mean
Activity calls are given as the source filed them.

Field: example entries. Status: answers known.
INSERT INTO assay_data (compound, result) VALUES
  ('O=C(Nc1cccc(S(=O)(=O)NC2=NCCC2)c1)c1cc(-c2ccco2)nc2ccccc12', '22.7 µM (active)'),
  ('Cc1cccc2sc(NNC(=O)c3cc(-c4cccs4)nc4ccccc34)nc12', '26.7 µM (active)'),
  ('C=CCn1/c(=N/C(=O)c2cc(-c3cccs3)nc3ccccc23)sc2cc(S(N)(=O)=O)ccc21', '21.6 µM (active)'),
  ('COc1ccc(NC(=O)c2cc(-c3ccco3)nc3ccccc23)cc1S(=O)(=O)N1CCOCC1', '28.1 µM (active)');

Please examine the following record next.
Per the record, [O-][S+](c1ccccc1O)[S+]([O-])c1ccccc1O (stereo not given) has IC50 of 9.15 µM (active)
